Numbers sourced from PubChem BioAssay (NCI).

Tested on: HOP-62 NSCLC
assay remarks: NCI tumour cell line growth inhibition, 48 h

smiles text: CC(=O)Nc1ccc(Nc2cc(=O)n(C)c(=O)[nH]2)cc1
TGI: > 100 µM
--
smiles text: CC[C@@H](CCCC[C@@H]1CC[C@H]2CC(=O)C[C@@H]12)OC
TGI: > 100 µM
--
smiles text: CNNC1=NS(=O)(=O)c2cc(C)c(Cl)cc2S1
TGI: > 10 µM
--
smiles text: C1=CN2C[n+]3cccc(OCc4ccccc4)c3N=C2C(OCc2ccccc2)=C1
TGI: > 100 µM
--
smiles text: CCOC(=O)C1(Cc2ccccc2)Cc2cc3c(cc2C1)CCC3
TGI: > 100 µM
--
smiles text: Cc1ccc(-c2c(C#N)c(N)nc(N3CCOCC3)c2C#N)o1
TGI: > 100 µM

----------
# Lookup of reported TGI keyed by entry
Tested on: EKVX NSCLC
assay remarks: NCI tumour cell line growth inhibition, 48 h
property: TGI

molecule: COc1ccc(-c2oc3cc(O)c(OC)c(O)c3c(=O)c2OC2OC(CO)C(O)C(O)C2O)cc1 (stereo not drawn)
recorded measurement: > 100 µM

molecule: O=C(CCCc1c[nH]c2ccccc12)NC1CC(=O)c2c(Br)sc(Br)c21 (stereo not drawn)
recorded measurement: 37.3 µM

molecule: CSCCC(NCc1c(O)ccc2ccc(=O)oc12)C(=O)O (stereo not drawn)
recorded measurement: > 100 µM

----------
System: NCI-H522 lung
assay remarks: NCI tumour cell line growth inhibition, 48 h
property: TGI

compound: O=C(Nc1n[nH]c2nc(-c3ccco3)c(Br)cc12)C1CC1
recorded measurement: > 25 µM

compound: O=C(Nc1ccncc1)C(=O)c1cn(S(=O)(=O)c2ccc(Br)cc2)c2ccccc12
recorded measurement: > 100 µM

compound: COc1cc(-c2cc(C(=O)N3CCN(C(=O)c4ccccc4NCc4ccco4)CC3)nc3cc(-c4ccccc4)nn23)cc(OC)c1OC
recorded measurement: > 26.5 µM

compound: COc1cc(C2C(Cl)C(=O)N2n2cnc3ccccc3c2=O)cc(OC)c1OC (stereo unspecified)
recorded measurement: > 100 µM

compound: CC1(C)CC(=O)C2=C(C1)NC(SSC1=C(C#N)C(c3ccccc3)C3=C(CC(C)(C)CC3=O)N1)=C(C#N)C2c1ccccc1 (stereo unspecified)
recorded measurement: 47.7 µg/mL

compound: CC(=O)N1c2ccccc2C(C)(C)OC1C(Cl)(Cl)Cl (stereo unspecified)
recorded measurement: 69.3 µM

----------
System: HL-60(TB) leukemia
assay remarks: NCI tumour cell line growth inhibition, 48 h
Rule: TGI under 5 µM gives condition not met, otherwise condition met.

molecule: O/N=c1/ccn(O)c2ccccc12
label class: condition met

molecule: COC(=O)C1Cc2ccc(C)cc2C1=O (configuration not stated)
label class: condition met

molecule: COc1ccc(N(C)c2nc(C)nc3ccccc23)cc1
label class: condition not met

molecule: Cc1ccc(S(=O)(=O)NC(CCC(=O)Nc2ccc(Cl)cc2)C(=O)Nc2ccc(Cl)cc2)cc1 (configuration not stated)
label class: condition met

molecule: COC1C=C(Nc2cccc(Cl)c2)C(=O)C1 (configuration not stated)
label class: condition met

molecule: C/C(=N\NC(=S)Nc1ccc(C(=O)O)cc1)c1ccccn1
label class: condition met

molecule: CC(C)(C)c1cc(C(=O)/C=C/c2ccc(O)c(O)c2O)cc(C(C)(C)C)c1O
label class: condition met

molecule: CCCCCCCCCCCCCCCC(=O)ON1C(=S)NC(C)(c2ccccc2)C1=S (configuration not stated)
label class: condition met

molecule: CC(=O)Oc1c(C)cc(-c2cc(C)c(OC(C)=O)c(C)c2)cc1C
label class: condition met

molecule: Cc1cc(C)c(S(=O)(=O)N[C@@H](/C=C(\Br)CO)C(C)C)c(C)c1
label class: condition met

molecule: N#Cc1cccc(C2ON=C(c3ccc([N+](=O)[O-])cc3)N2C23CC4CC(CC(C4)C2)C3)c1 (configuration not stated)
label class: condition met

molecule: O=C(CCCN1CCC2(CC1)C(=O)NC(=O)N2c1ccccc1)c1ccc(F)cc1
label class: condition met

molecule: CC1=COC(=O)c2ccccc2N1
label class: condition met

molecule: O=C(O)c1cccc(S(=O)(=O)NN2C(=O)CSC2c2ccccc2)c1 (configuration not stated)
label class: condition met

molecule: CC(Cl)(/C=C/Cl)C(Cl)/C=C/C(Cl)(CCl)CBr (configuration not stated)
label class: condition met

molecule: CCC1(OC(=O)CN2CCN(CCO)CC2)C(=O)OCc2c1cc1n(c2=O)Cc2cc3ccccc3nc2-1 (configuration not stated)
label class: condition not met

molecule: O=C(O)CN(c1ccc(Cl)cc1)S(=O)(=O)c1ccccc1
label class: condition met

molecule: O=C(Cc1ccccc1)NN1C(=O)C(Cl)C1c1cccc(O)c1 (configuration not stated)
label class: condition met

molecule: CC(CC(=O)CO[C@H]1[C@H](O)[C@@H](O)[C@@H](O)[C@@H]2NC(=O)c3c(cc4c(c3O)OCO4)[C@H]21)OC1OC(CO)C(O)C(O)C1O (some centres not stated)
label class: condition not met

molecule: O=C1Nc2cccc3ncn(c23)C2=C1CCCC2
label class: condition met

molecule: FC(F)(F)P1C2C=CC(CC2)C1(F)F (configuration not stated)
label class: condition met

molecule: Cc1nc2c(o1)C(=O)c1ccccc1C2=NC1CCCCC1N (configuration not stated)
label class: condition not met
